Origin of the recorded values: patent US20200109188A1

target: HA of ca A/New Caledonia/20/99 (H1N1) virus (influenza A virus); assay: cell-based or functional assay
Please note: t applies when Neutralization IC50, H1-Ncal99 is 0.7 µg/mL or greater, and f applies otherwise.

{"binder": "Antibody 15 (antibody, V domains shown) VH: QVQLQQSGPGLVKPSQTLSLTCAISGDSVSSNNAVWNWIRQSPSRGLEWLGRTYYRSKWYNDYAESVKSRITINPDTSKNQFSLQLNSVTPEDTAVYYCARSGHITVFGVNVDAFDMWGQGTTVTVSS VL: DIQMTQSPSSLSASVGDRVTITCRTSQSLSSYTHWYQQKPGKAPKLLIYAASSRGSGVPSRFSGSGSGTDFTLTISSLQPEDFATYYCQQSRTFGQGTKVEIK", "label_class": "t"}
{"binder": "Antibody 12 (antibody, V domains shown) VH: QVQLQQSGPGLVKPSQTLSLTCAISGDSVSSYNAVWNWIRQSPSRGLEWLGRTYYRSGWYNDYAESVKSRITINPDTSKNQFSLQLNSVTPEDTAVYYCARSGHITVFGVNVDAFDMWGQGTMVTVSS VL: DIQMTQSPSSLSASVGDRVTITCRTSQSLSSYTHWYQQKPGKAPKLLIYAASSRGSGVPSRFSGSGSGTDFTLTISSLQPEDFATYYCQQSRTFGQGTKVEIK", "label_class": "f"}
{"binder": "Antibody 13 (antibody, V domains shown) VH: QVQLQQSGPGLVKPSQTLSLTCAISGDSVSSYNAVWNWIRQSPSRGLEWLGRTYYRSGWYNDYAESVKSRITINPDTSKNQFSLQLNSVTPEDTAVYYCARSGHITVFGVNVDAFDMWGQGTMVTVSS VL: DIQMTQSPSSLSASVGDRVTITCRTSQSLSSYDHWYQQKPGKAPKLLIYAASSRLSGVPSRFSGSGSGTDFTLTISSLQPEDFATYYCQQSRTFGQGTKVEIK", "label_class": "t"}
{"binder": "Antibody 14 (antibody, V domains shown) VH: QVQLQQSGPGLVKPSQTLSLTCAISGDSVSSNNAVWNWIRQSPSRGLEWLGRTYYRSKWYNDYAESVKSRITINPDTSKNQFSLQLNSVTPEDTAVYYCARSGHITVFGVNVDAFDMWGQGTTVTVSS VL: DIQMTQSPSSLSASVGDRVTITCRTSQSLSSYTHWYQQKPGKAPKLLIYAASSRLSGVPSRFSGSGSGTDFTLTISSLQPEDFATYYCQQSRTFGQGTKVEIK", "label_class": "f"}
{"binder": "Antibody 11 (antibody, V domains shown) VH: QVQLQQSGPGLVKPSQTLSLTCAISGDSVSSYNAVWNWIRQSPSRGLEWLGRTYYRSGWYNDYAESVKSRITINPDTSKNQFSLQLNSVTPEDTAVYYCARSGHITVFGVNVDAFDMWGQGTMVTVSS VL: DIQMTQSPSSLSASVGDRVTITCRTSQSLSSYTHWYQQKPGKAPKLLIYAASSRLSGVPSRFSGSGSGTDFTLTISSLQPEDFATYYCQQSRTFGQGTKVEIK", "label_class": "f"}
